huEGFR^+ mcl-1^-/- MEF EC50 values, listed per item
target_desc: human Epidermal Growth Factor Receptor (huEGFR) over-expressed in mcl-1-/- mouse embryonic fibroblasts (human, UniProt P00533 25-1210)
experiment_summary: cell-based or functional assay
parameter: huEGFR^+ mcl-1^-/- MEF EC50

- AbK-TV (antibody, V domains shown, synthon TV on reduced interchain Cys) VH: EVQLQESGPGLVKPSQTLSLTCTVSGYSISRDFAWNWIRQPPGKGLEWMGYISYNGNTRYQPSLKSRITISRDTSKNQFFLKLNSVTAADTATYYCVTASRGFPWWGQGTLVTVSS VL: DIQMTQSPSSMSVSVGDRVTITCHSSQDITYNVGWLQQKPGKSFKGLIYHGSNLDHGVPSRFSGSGSGTDYTLTISSLQPEDFATYYCVQYDDFPWTFGGGTKLEIKR: 0.15 nM
- AbB-LB (antibody, V domains shown, synthon LB on reduced interchain Cys) VH: EVQLQESGPGLVKPSQTLSLTCTVSGYSISNDFAWNWIRQPPGKGLEWMGYISYKGNTRYQPSLKSRITISRDTSKNQFFLKLNSVTAADTATYYCVTASRGFPWWGQGTLVTVSS VL: DIQMTQSPSSMSVSVGDRVTITCHSSQDINSNIGWLQQKPGKSFKGLIYHGTNLDDGVPSRFSGSGSGTDYTLTISSLQPEDFATYYCVQYAQFPWTFGGGTKLEIKR: 31 nM

Numbers sourced from patent US20190153108A1.
